Values from ChEMBL document CHEMBL4513216

test: Toxicity liver stage against HepG2, at 10uM; type: cell-based; parameters: test concentration 10 uM, cell line HepG2-A16-CD81EGFP; settings: human, HepG2-A16-CD81EGFP cells; read-out: INHIBITION
metric: cytotoxicity at 10 µM
Please state the value followed by its unit.

Worked cases, cytotoxicity at 10 µM given:
O=S(=O)(c1cccnc1)N1C[C@H]2CC[C@@H](C1)N(Cc1ccccn1)C2 ... -0.807%
Cc1c(F)cc(C(=O)O)cc1S(=O)(=O)Nc1ccc2c(c1)OCCO2 ... -1.45%
COc1ccc(Cl)cc1NCC(=O)N(Cc1ccccn1)C1CC1 ... 8.13%
COCCOc1ccc(CNC2CCc3ncnn3C2)cc1OC (configuration not stated) ... -7.2%
CCc1[nH]c2c(CNc3cnccn3)cc(F)cc2c1C ... -2.61%
C[C@H](NC(=O)C1CCCC1)c1nc2cc(-c3ccc(F)cc3)ncn2n1 ... -10.9%

Ask: Would you kindly share the measured cytotoxicity at 10 µM for CCc1noc(CS(=O)(=O)Cc2nc(Cc3ccccc3)no2)n1 ?
Reply: 5.45%

Ask: Same question for CN(C)C(=O)CCC[S+]([O-])Cc1ccc(Cl)c(Cl)c1 (configuration not stated) please.
Reply: 12.4%

Ask: Same question for Oc1cccc(C2CN(c3nnc(C4CC4)s3)CCO2)c1 (configuration not stated) please.
Reply: 1.07%

Ask: Same question for CC(=O)N1CCC(C(=O)N2CCOC(CC3CCCCC3)C2)CC1 (configuration not stated) please.
Reply: -13.7%
